FYI, the data here is from ChEMBL document CHEMBL1140266.

experiment: in vivo; details: Sprague-Dawley, rat, po, 2 mg/kg
Please provide measured bioavailability for the entries that follow.
Numbers only, in %.

Reference set (2 entries):
molecular_string=CC[C@]1(C(=O)O)CCc2ccc(OCCCOc3ccc(C4CCC(C)(C)CC4)cc3Cl)cc2O1 metric=bioavailability display_unit=% measured_result=95
molecular_string=CC(C)c1ccc(OCCCOc2ccc3c(c2)O[C@@](C)(C(=O)O)CC3)c(Cl)c1 metric=bioavailability display_unit=% measured_result=54

Okay, next one:
Q: May I ask what bioavailability has been recorded for C[C@]1(C(=O)O)CCc2ccc(OCCCOc3ccc(OCC(F)(F)F)cc3Cl)cc2O1 ?
Ans: 60

* * *

Please provide measured pIC50 for the entries that follow.
Target: Peroxisome proliferator-activated receptor delta (Homo sapiens, UniProt Q03181)
Sequence (Q03181 whole entry): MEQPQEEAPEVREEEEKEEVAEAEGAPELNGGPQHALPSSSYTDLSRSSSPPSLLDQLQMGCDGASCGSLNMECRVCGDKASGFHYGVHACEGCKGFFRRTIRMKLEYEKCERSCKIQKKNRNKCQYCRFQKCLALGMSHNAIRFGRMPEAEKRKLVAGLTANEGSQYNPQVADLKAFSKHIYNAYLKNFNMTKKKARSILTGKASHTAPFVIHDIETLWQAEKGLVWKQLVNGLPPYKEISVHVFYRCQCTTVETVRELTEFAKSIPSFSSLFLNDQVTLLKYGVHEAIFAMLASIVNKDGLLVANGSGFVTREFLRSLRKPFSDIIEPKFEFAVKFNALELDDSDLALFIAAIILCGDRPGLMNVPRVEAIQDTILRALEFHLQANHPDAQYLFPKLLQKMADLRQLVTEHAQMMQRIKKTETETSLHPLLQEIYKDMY
pIC50: −log10 of the molar value.

molecular_string=CC(C)c1ccc(OCCCOc2ccc3c(c2)O[C@@](C)(C(=O)O)CC3)c(Cl)c1 metric=pIC50 measured_result="< 4.82"

Give measured pIC50 for every item shown.
1. COc1ccc(OCCCOc2ccc3c(c2)O[C@@](C)(C(=O)O)CC3)c(Cl)c1
2. CCOc1ccc(OCCCOc2ccc3c(c2)O[C@@](C)(C(=O)O)CC3)c(Cl)c1
3. CC(C)(C)c1ccc(OCCCOc2ccc3c(c2)O[C@@](C)(C(=O)O)CC3)c(Cl)c1
4. C[C@]1(C(=O)O)CCc2ccc(OCCCOc3ccc(OCC4CCC4)cc3Cl)cc2O1
5. CC[C@]1(C(=O)O)CCc2ccc(OCCCOc3ccc(OCC(F)(F)F)cc3Cl)cc2O1
6. CC[C@]1(C(=O)O)CCc2ccc(OCCCOc3ccc(C(C)(C)C)cc3Cl)cc2O1
7. CC[C@]1(C(=O)O)CCc2ccc(OCCCOc3ccc(C4CCC(C)(C)CC4)cc3Cl)cc2O1

Ans:
< 4.30
< 4.82
< 4.82
< 4.82
< 4.30
< 4.30
< 4.30

* * *

biological target: Peroxisome proliferator-activated receptor delta (Homo sapiens)
metric: IC50

Reference set (2 entries):
molecular_string=CC[C@]1(C(=O)O)CCc2ccc(OCCCOc3ccc(CC(C)C)cc3Cl)cc2O1 measured_result="> 50 µM"
molecular_string=CC[C@]1(C(=O)O)CCc2ccc(OCCCOc3ccc(C4CCOCC4)cc3Cl)cc2O1 measured_result="> 50 µM"

Okay, next one:
Q: May I ask what IC50 has been recorded for C[C@@]1(C(=O)O)CCc2ccc(OCCCOc3ccc(OCC(F)(F)F)cc3Cl)cc2O1 ?
Ans: > 50 µM
